test: Reversal of resistance to colchicine-induced cytotoxicity in human SW620/AD300 cells assessed as reduction in colchicine IC50 at 1 uM pre-incubated for 4 hrs followed by colchicine addition and measured after 72 hrs by MTT assay; type: functional, cell-based; details: SW-620
quantityKind: IC50
Your answer should be a number followed by the unit of measure.

What IC50 value was documented for this compound, `COc1cc2ncnc(-c3c(-c4ccccc4)n(Cc4ccccc4Br)c4ccccc34)c2cc1OCCCN1CCOCC1` ?
17.2 µM

----------
target: ATP-dependent translocase ABCB1 (Homo sapiens); assay: Inhibition of recombinant human P-gp ATPase activity incubated for 60 mins by luminescence based Glo assay
Sequence (P08183 whole entry): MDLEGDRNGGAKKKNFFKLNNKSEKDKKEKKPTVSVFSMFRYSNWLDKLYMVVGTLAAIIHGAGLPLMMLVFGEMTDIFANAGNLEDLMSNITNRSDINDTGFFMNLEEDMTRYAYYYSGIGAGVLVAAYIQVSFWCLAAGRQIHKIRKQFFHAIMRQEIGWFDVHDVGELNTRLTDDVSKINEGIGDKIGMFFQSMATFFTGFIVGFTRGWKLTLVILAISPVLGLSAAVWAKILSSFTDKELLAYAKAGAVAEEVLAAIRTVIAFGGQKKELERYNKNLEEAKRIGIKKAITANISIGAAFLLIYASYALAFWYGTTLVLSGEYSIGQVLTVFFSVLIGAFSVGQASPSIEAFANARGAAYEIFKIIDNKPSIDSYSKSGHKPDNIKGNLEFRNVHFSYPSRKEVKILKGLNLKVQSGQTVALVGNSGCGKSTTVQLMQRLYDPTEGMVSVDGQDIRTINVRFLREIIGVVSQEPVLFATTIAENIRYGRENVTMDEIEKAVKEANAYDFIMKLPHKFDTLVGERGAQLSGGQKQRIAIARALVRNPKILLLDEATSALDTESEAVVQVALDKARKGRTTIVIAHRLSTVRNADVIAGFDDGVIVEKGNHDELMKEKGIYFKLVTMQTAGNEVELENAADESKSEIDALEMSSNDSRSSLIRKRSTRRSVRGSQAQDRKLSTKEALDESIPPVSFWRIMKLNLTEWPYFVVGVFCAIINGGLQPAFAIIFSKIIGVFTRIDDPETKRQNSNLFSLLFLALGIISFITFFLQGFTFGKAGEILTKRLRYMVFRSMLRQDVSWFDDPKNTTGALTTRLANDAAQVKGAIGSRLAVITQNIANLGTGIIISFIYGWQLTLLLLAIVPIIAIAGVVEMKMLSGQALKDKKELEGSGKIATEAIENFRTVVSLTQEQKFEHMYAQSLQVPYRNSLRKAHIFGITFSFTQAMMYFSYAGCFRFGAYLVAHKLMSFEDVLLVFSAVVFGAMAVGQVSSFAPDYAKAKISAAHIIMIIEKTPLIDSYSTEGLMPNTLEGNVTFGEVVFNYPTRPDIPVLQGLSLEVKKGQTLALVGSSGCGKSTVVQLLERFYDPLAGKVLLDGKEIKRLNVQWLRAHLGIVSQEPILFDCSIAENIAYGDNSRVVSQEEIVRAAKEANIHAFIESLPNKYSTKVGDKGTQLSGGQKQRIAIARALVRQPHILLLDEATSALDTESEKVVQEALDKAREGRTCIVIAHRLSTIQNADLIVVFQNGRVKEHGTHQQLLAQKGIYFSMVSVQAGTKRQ
quantityKind: pIC50
To interpret pIC50, take it as minus log10 of a concentration measured in moles per litre.

What pIC50 value was documented for this compound, `COc1cc2ncnc(-c3c(-c4ccccc4)n(Cc4ccccc4Br)c4ccccc34)c2cc1OCCCN1CCOCC1` ?
5.29

----------
assay: Reversal of resistance to paclitaxel-induced cytotoxicity in human SW620/AD300 cells assessed as reduction in paclitaxel IC50 at 0.5 uM pre-incubated for 4 hrs followed by paclitaxel addition and measured after 72 hrs by MTT assay; format: functional, cell-based; conditions: SW-620
quantityKind: IC50
Your answer should be a number followed by the unit of measure.

What IC50 value was documented for this compound, `COc1cc2ncnc(-c3c(-c4ccccc4)n(Cc4ccccc4Br)c4ccccc34)c2cc1OCCCN1CCOCC1` ?
0.1 µM

----------
biological target: Cytochrome P450 3A4 (Homo sapiens); assay: Inhibition of human recombinant CYP3A4 by fluorescence assay
Sequence (P08684 whole entry): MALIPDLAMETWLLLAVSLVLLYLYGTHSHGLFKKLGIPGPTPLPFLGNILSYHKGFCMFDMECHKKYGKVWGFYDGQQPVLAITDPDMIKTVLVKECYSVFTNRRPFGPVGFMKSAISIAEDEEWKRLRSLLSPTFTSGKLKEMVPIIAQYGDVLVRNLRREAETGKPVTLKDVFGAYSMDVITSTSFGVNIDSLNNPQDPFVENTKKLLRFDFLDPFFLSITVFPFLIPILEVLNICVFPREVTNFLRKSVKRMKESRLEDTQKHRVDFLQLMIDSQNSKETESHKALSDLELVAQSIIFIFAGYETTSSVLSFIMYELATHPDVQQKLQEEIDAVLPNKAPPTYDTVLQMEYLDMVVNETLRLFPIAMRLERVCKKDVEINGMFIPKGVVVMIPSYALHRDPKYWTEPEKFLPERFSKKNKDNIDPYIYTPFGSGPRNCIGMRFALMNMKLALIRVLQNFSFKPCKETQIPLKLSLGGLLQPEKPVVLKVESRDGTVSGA
quantityKind: pIC50
To interpret pIC50, take it as minus log10 of a concentration measured in moles per litre.

What pIC50 value was documented for this molecule, `COc1cc2ncnc(-c3c(-c4ccccc4)n(Cc4ccccc4Br)c4ccccc34)c2cc1OCCCN1CCOCC1` ?
5.39
